- tested.target: Inorganic pyrophosphatase (T-PPase) (Thermus thermophilus)
- Sequence (Q72H95 1-175): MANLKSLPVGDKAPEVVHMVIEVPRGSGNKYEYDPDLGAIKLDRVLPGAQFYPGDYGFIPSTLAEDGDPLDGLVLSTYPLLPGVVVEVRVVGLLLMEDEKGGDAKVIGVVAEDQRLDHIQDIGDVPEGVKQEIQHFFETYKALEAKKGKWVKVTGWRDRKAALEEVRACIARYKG
Structures can show the parent of a compound that is named as a salt.
assay.metric: pKi
# pKi = -log10(concentration in molar units)

# input Query pKi for CCCCCCCCCCCCOS(=O)(=O)O [Sodium dodecyl sulfate]
# output 2.47
